Data origin, for the record: PubChem BioAssay (NCATS)

# Test system: FAB9
# assayText: qHTS profiling for inhibitors of Plasmodium falciparum proliferation (AID 504749); also: nearly all actives have a fitted effect of over 60% in size
# cond: P. falciparum in erythrocytes, SYBR Green DNA, 72 h; series mostly up to 28.7 µM
Records with an inconclusive call do not appear. Calls of active or inactive are those of the source. Calls follow the shape of the dose curve; as a rule, active = well fitted inhibition curve with a large enough effect; inconclusive = small, poorly fitted or top-dose-only effect; inactive = flat fitted curve, though single readings scatter.
Classes used: label 1 (active), label 0 (inactive)

molecule	labelValue
CC(=O)OCC(=O)[C@@H]1CC[C@H]2[C@H]3CC[C@H]4C[C@@H](O)CC[C@]4(C)[C@@H]3C(=O)C[C@@]12C	label 0
CC[C@@H]1[C@@H]2C[C@H]3[C@H]4N(C)c5ccccc5[C@@]45C[C@@H]([C@@H]2[C@@H]5O)N3[C@H]1O	label 0
C[C@]12CC[C@H](OS(=O)(=O)O)CC1=CCC1C2CC[C@]2(C)C(=O)CC[C@@H]12 (some centres not stated)	label 0
CC(=O)O[C@H]1CC[C@@]2(C)C(=CC[C@@H]3[C@H]2CC[C@]2(C)C(=O)CC[C@H]32)C1	label 0
[Hg+][c]1ccccc1	label 1
CC[C@]1(c2cccc(O)c2)CCCCN(C)C1	label 0
CN[C@@H](C)[C@H]1CC[C@@H](N)[C@@H](O[C@@H]2[C@@H](O)[C@@H](O[C@H]3OC[C@@](C)(O)[C@@H](NC)[C@@H]3O)[C@H](N)C[C@@H]2N)O1 (tested in a mixture with another compound)	label 0

* * *

# Test system: C2A
# assayText: qHTS profiling for inhibitors of Plasmodium falciparum proliferation (AID 504749); also: nearly all actives have a fitted effect of over 60% in size
# cond: P. falciparum in erythrocytes, SYBR Green DNA, 72 h; series mostly up to 28.7 µM
Records with an inconclusive call do not appear. Activity calls are given as the source filed them. Calls come from the whole dose curve; as a rule, active = well fitted inhibition curve with a large enough effect; inconclusive = small, poorly fitted or top-dose-only effect; inactive = flat fitted curve, though single readings scatter.

compound	outcome
C[C@H](N)[C@@H](O)c1ccccc1	inactive
CC(C)(O)C1C2OC(=O)C1[C@]1(O)C[C@H]3O[C@]34C(=O)O[C@H]2[C@]14C (stereo not given in full) (tested in a mixture with another compound)	inactive
N[C@H]1C[C@H]1c1ccccc1	inactive
C[C@]12CC[C@H](OS(=O)(=O)O)CC1=CCC1C2CC[C@]2(C)C(=O)CC[C@@H]12 (stereo not given in full)	inactive
CC(C)N(CC[C@@](C(N)=O)(c1ccccc1)c1ccccn1)C(C)C	inactive

* * *

# system: Catechol O-methyltransferase (Homo sapiens) (UniProt P21964)
# Sequence (P21964 whole entry, looked up): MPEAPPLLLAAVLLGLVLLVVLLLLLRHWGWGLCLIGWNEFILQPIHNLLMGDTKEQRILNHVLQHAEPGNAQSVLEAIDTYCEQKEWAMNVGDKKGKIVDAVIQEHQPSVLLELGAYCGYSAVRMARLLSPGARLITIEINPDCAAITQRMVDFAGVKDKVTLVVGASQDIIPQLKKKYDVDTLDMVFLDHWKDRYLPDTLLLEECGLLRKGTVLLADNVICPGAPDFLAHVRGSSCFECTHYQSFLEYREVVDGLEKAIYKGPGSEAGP
# assayText: Confirmatory Screen for Target Class Profiling of Small Molecule Inhibitors of Methyltransferases (AID 1745852)
# cond: MTase-Glo luminescence, SAH detection, recombinant enzyme; measured here: COMT max response; stronger effect = lower value
Here, each record is paired with measured activity data.
recordedMetric: activity

> print(dat)
                                   compound     val
1   NC(=O)c1ccc(N2CC3CCC(C2)N3CC(F)(F)F)nn1   10.2%
2        CNC1CCc2ccccc21 (stereo not drawn)  -8.85%
3  COc1ccc(-c2cc([C@H]3CN4CC[C@H]3C[C@@H]4CN)nc(C)n2)cc1OC   2.55%
4           [Cl][Pt].[NH2-].[NH2-].c1ccncc1   -4.9%
5  C=C[C@H]1CN2CC[C@H]1C[C@@H]2CNC(=O)Nc1ccc(Br)cc1   4.06%
6         COc1ccc(-c2cc3c(cn2)CN(C)CCN3)cn1   1.58%
7  C[C@H]1CCCC(=O)CCC/C=C/c2cc(O)cc(O)c2C(=O)O1    -93%
8  CC(=O)NC[C@H]1C[C@@H]2CCN1C[C@@H]2c1cc(-c2ccc3ccccc3c2)nn1C   4.95%

* * *

# assayText: NFAT Signaling Pathway (AID 444);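 also: carbachol stimulus at about its EC50 of 1 µM final; % is scaled to controls: 0 for no effect and ±100 for the full control effect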
# cond: Jurkat NFAT-bla M1, carbachol, beta-lactamase ratio, 5 h; at 17.2 µM (top of the series)
Results filed as inconclusive are left out. Active and inactive are the calls of the source. The call rests on the fitted dose curve; in most records, active means well fitted curve in either direction with a large enough effect (not every such curve was filed as active); inconclusive means small, poorly fitted or top-dose-only effect, or another doubt; inactive means flat fitted curve, though single readings scatter.
Possible outcomes: 1 for active, -1 for inactive

> print(dat)
                            structuresmiles  labelvalue
1       COC1=CC(=O)O[C@@H](/C=C\c2ccccc2)C1          -1
2  CN1CCC2=C[C@H](O)[C@@H]3OC(=O)c4cc5c(cc4[C@H]3[C@H]21)OCO5          -1
3  CCN1C[C@]2(C)CC[C@H](OC)[C@@]34[C@@H]2[C@H](OC(C)=O)[C@]2(OCO[C@@]25C[C@@H](OC)[C@@H]2C[C@@]3(O)[C@H]5[C@@H]2OC)[C@H]14          -1
4           C[C@H]1OC[C@@H](C[N+](C)(C)C)O1           1
5  C[C@@]12CC[C@H]3[C@@H](CC[C@@H]4C[C@H]5S[C@H]5C[C@]43C)[C@H]1CC[C@H]2O          -1
6  CC[C@H]1CN2CC[C@@H]1C[C@H]2[C@@H](O)c1ccnc2ccc(OC)cc12          -1
7  C[N+]1(C)CCO[C@](O)(c2ccc(-c3ccc([C@]4(O)C[N+](C)(C)CCO4)cc3)cc2)C1          -1
8  COc1ccc(C[C@H]2c3cc(OC)c(OC)cc3CCN2C)cc1OC          -1
9  CCN1C[C@]2(COC)CC[C@H](O)[C@@]34[C@@H]5C[C@H]6[C@@H](OC)[C@H]5[C@](O)(C[C@@H]6OC)[C@@](O)([C@@H](OC)[C@H]23)[C@@H]14          -1

* * *

# system: Cytochrome P450 3A4 (Homo sapiens) (UniProt P08684)
# Sequence (P08684 whole entry, looked up): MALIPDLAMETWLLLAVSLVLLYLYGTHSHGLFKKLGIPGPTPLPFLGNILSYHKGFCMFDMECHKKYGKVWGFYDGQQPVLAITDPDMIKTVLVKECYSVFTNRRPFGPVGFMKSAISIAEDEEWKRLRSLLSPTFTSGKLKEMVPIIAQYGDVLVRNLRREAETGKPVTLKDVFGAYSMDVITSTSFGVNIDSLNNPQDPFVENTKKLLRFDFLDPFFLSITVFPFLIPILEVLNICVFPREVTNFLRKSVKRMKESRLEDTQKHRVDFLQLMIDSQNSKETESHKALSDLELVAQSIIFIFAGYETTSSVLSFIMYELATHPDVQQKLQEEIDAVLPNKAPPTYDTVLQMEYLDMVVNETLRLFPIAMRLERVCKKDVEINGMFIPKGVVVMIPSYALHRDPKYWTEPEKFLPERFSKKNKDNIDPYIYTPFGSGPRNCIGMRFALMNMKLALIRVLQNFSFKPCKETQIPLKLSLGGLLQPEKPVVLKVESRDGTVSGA
# assayText: qHTS Assay for Activators of Cytochrome P450 3A4 (AID 885); also: nearly all actives have a fitted effect of over 65% in size
# cond: recombinant CYP3A4, Luciferin-PPXE luminescence, 60 min; series mostly up to 57.1 µM
Activity calls are given as the source filed them. The call rests on the fitted dose curve; in most records, active means well fitted activation curve with a large enough effect; inconclusive means small, poorly fitted or top-dose-only effect; inactive means no such curve, though single readings can be large or run the other way.
Outcome codes: active, inactive

compound	labelValue
CC1CC[C@@]2(OC1)OC1C(O)C3C4CC[C@H]5CC(O[C@@H]6O[C@@H](CO)[C@H](OC7OC(CO)C(O)C(OC8OCC(O)C(O)[C@H]8O)[C@@H]7O[C@@H]7OC(CO)[C@H](O)[C@@H](O[C@@H]8OC(CO)C(O)C(O)C8O)C7O)C(O)C6O)C(O)C[C@]5(C)C4CC[C@]3(C)C1C2C (some centres not stated)	inactive
c1cc2c(cc1C1OC[C@@H]3C(c4ccc5c(c4)OCO5)OCC13)OCO2 (some centres not stated)	inactive
COc1ccc2c(c1OC)C(=O)O[C@H]2[C@H]1c2cc3c(cc2CCN1C)OCO3	inactive
ClC1=C(Cl)C2(Cl)C3C4C=CC(C4)C3C1(Cl)C2(Cl)Cl (configuration not stated)	inactive
O=C(Oc1ccccc1)N1CCC2(CCN(Cc3nccs3)CC2)CC1	active
O=C(Nc1ccccc1)N1CCC2(CC1)CCN(C(=O)Oc1ccccc1)CC2	active
CCN(CC)C(=O)N[C@@H]1C[C@H]2c3cccc4[nH]cc(c34)C[C@@H]2N(C)C1	inactive
CC1(C)C(O)CC(O)[C@]2(C)C1CC(O)[C@]1(C)C2CC[C@@]2(C)C(c3ccoc3)CC3OC312 (some centres not stated)	inactive
CCC12CCCN3CCC4(c5ccc(OC)c(O)c5N(C(C)=O)C4CC1)C32 (configuration not stated)	inactive
COc1cc(OC)c(/C=C2/C(=O)Nc3ccccc32)c(OC)c1	inactive
CC1=C2C3OC(=O)[C@H](C)[C@H]3CC[C@@]2(C)C=CC1=O (some centres not stated)	inactive
C[C@]12CCC3C(CC[C@H]4C[C@@H](O)CC[C@]34C)[C@@H]1CCC2=O (some centres not stated)	inactive
c1ccc(N2CCCC3(CCNCC3)C2)nc1	inactive
CCCCC/C=C\C/C=C\C/C=C\C/C=C\CCCC(=O)O	inactive
O=C(Nc1cccc(F)c1)N1CC[C@@]2(CCCN(C(=O)Oc3ccccc3)C2)C1	inactive
C/C=C(\C)C(=O)OC1CC(OC(C)=O)[C@@]2(C(=O)OC)COC3C2[C@@]12CO[C@](O)(C(=O)OC)C2[C@](C)(C12OC1(C)C1CC2OC2OC=C[C@]21O)C3O (some centres not stated)	inactive
CCc1c(C(=O)OC)ncc2[nH]c3cc(OC)c(OC)cc3c12	inactive
C=C1C2CC[C@@]3(C)C(c4ccoc4)OC(=O)C[C@@]13OC1CC(=O)C(C)(C)C(C(OC(C)=O)C(=O)OC)[C@@]12C (some centres not stated)	inactive
CC(=O)OC1CC(OC(C)=O)[C@]2(C)C(CC(OC(C)=O)[C@]3(C)C2CC[C@@]2(C)C(c4ccoc4)C(=O)C4O[C@]432)C1(C)C (some centres not stated)	inactive
COc1cc2c(cc1O)C[C@H]1c3c(cc(OC)c(O)c3-2)CCN1C	inactive
Clc1ccccc1-c1cncnc1NCCc1cnc[nH]1	inactive
CCOCN(C(=O)CCl)c1c(C)cccc1CC	active
O=C(Oc1ccccc1)N1CCC[C@@]2(CCN(C(c3ccccc3)c3ccccc3)C2)C1	inactive
O=C(Nc1cccc(F)c1)N1CCCC2(CCN(C(=O)Oc3ccccc3)CC2)C1	inactive
CN1CC[C@@]2(CCCN(C(=O)Oc3ccccc3)C2)C1	inactive
O=C(OC1CCN(CCCl)CC1)C(c1ccccc1)c1ccccc1	inactive
C=C1C/C(=C\C)C(=O)O[C@@H]2CCN3CC=C(COC(=O)[C@@]1(C)O)[C@H]23	inactive
COc1cc(CNC(=O)CCCC/C=C\C(C)C)ccc1O	inactive
COC1=CC(=O)O[C@@H](/C=C/c2ccc3c(c2)OCO3)C1	inactive
O=C(Nc1ccccc1)N1CCCC2(CCN(C(=O)Oc3ccccc3)CC2)C1	inactive
c1nc[nH]n1	inactive
C=CC1CN2CCC1CC2C(OC(=O)OCC)c1ccnc2ccc(OC)cc12 (configuration not stated)	inactive
